tested on: OVCAR-8 ovarian; assay: NCI tumour cell line growth inhibition, 48 h
Items are presented alongside their recorded TGI.
MEASURED QUANTITY: TGI

COMPOUND: CN(C)CCNC(=O)c1ccc(NC(=O)c2nc([N+](=O)[O-])cn2C)cc1
MEASURED: > 100 µM

COMPOUND: C=C1CCC([N+](=O)[O-])[C@](C)(N=O)CC[C@@H]2C1CC2(C)C (stereo partly specified)
MEASURED: 48 µM

COMPOUND: COc1cc(CNNC(N)=S)cc(OC)c1OC
MEASURED: > 100 µM

COMPOUND: O=C1C[C@@H]2/C(=C(O)\C=C\c3ccccc3)C(=O)C=C[C@@H]2O1
MEASURED: 12.3 µM

COMPOUND: CC(=O)OCC1OC(n2c(-c3ccc(C)cc3)cc(-c3ccccc3)c(C#N)c2=O)C(OC(C)=O)C(OC(C)=O)C1OC(C)=O (stereo unspecified)
MEASURED: > 100 µM

COMPOUND: C[C@@H]1CC[C@@H]2[C@@H](C1)O[C@@H]([C@H](C)OCc1ccccc1)SC2(C)C
MEASURED: > 100 µM
